Source of measurements: patent US10675284B2

Reported IC50 values are given for each entry in this list.
target: human JAK1 (a.a. 837-1142) (Homo sapiens, UniProt P23458); test: In vitro JAK kinase assay (HTRF), JAK1; assay type: biochemical; settings: 1 mM ATP; read-out: JAK1 IC50
Sequence (P23458 whole entry, looked up): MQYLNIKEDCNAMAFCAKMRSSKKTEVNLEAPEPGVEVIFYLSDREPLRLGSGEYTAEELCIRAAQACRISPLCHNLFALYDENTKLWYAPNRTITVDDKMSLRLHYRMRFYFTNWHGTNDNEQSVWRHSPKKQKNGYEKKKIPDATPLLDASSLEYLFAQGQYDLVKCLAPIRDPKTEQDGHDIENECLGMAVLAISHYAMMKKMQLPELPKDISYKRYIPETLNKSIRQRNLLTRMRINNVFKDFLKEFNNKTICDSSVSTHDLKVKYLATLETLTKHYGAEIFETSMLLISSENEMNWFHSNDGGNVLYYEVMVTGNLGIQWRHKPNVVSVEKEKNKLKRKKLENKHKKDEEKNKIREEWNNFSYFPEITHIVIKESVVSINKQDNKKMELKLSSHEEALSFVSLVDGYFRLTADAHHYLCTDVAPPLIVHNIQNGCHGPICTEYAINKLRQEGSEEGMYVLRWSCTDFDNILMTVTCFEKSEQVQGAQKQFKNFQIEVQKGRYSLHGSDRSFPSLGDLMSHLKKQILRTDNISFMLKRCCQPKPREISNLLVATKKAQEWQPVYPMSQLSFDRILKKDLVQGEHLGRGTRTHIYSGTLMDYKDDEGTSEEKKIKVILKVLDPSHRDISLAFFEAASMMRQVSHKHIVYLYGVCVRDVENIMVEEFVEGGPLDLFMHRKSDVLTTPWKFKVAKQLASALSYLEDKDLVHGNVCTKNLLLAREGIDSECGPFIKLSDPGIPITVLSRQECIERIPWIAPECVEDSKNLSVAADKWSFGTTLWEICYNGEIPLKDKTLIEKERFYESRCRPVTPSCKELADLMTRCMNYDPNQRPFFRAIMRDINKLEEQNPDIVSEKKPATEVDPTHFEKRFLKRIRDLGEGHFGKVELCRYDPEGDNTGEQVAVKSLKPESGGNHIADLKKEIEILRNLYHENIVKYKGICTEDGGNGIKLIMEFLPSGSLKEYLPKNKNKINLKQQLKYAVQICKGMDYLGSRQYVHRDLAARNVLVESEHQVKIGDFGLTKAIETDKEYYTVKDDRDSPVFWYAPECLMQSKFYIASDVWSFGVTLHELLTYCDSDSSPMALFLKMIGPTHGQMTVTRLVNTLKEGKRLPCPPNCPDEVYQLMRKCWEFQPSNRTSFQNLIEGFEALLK

Please list IC50 recorded for the compound N#CC[C@]1(n2cc(-c3ncnc4[nH]ccc34)cn2)C[C@H](N2CCC(Oc3cc(CN4CC(O)C4)cc(C(F)(F)F)n3)CC2)C1
< 10 nM

Give the reported value of IC50 for this record: C[C@@H](CO)NCc1cc(OC2CCN([C@H]3C[C@](CC#N)(n4cc(-c5ncnc6[nH]ccc56)cn4)C3)CC2)nc(C(F)(F)F)c1
< 10 nM

Item N#CC[C@]1(n2cc(-c3ncnc4[nH]ccc34)cn2)C[C@H](N2CCC(Oc3cc(CCO)cc(C(F)(F)F)n3)CC2)C1 : provide IC50
< 10 nM

Return IC50 for the following compound: C[C@H](NC(=O)c1cc(F)c(N2CC(CC#N)(n3cc(-c4ncnc5[nH]ccc45)cn3)C2)cc1F)C(F)(F)F
< 10 nM
